target: tcTERT (Tribolium castaneum TERT) (Tribolium castaneum); experiment: SPR with POPC:POPE:S1P; type: binding
Sequence (Q0QHL8 1-596): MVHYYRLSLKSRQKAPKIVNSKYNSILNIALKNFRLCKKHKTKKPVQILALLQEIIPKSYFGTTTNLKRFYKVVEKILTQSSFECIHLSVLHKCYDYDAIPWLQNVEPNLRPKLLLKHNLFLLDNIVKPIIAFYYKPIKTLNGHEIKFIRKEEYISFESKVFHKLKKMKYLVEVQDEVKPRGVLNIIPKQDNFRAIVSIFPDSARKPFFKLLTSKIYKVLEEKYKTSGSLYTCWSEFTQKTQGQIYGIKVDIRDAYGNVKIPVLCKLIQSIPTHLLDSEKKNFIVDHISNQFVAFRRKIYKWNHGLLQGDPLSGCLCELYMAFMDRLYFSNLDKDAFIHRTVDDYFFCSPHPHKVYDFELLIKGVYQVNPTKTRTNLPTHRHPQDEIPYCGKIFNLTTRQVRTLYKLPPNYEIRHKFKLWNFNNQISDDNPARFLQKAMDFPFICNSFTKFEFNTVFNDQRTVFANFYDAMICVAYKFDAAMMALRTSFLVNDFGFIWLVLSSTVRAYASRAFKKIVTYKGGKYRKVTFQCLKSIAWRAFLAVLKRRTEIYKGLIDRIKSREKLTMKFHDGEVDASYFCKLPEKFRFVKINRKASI
TEST READOUT: Kd

Ask: Given the entry CCCCCCCCCCCCC/C=C/[C@@H](O)[C@@H](N)COP(=O)(O)O [S1P, sphingosine 1-phosphate] , report its measured Kd.
Result: ~4.8 µM
